Target: UniProtKB P48048
Sequence (P48048 whole entry): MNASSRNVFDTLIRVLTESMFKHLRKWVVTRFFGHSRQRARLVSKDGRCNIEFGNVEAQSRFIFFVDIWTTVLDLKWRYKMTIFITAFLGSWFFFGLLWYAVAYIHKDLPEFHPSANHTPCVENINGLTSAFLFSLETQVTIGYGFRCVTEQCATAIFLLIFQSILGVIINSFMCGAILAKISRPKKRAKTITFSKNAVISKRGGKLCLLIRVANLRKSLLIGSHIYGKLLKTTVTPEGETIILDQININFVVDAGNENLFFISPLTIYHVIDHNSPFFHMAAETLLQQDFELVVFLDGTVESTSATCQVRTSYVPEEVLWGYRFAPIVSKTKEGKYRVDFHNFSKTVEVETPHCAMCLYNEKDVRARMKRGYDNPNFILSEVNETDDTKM
Experiment: Thallium Flux Assay (ROMK channel functional thallium flux assay)
Conditions: HEK293 cells stably expressing hROMK (hKir1.1); FluxOR thallium flux, FLIPR-Tetra, 30 min compound incubation; read-out: ROMK TI IC50
pIC50: −log10 of the molar value.
measurement.kind: pIC50

smiles.input	system.tested	pIC50
Cc1c([C@@H](O)CN2CCC3(CC2)CCN(c2nc(Cl)ns2)C3)ccc2c1COC2=O	UniProtKB P48048	7.19
Cc1c([C@@H](O)CN2CCC3(CC2)CCN(c2cc(Cl)cnn2)CC3)ccc2c1COC2=O	UniProtKB P48048	7.62
Cc1c([C@@H](O)CN2CCC3(CC2)CCN(c2cnc(Cl)cn2)CC3)ccc2c1COC2=O	UniProtKB P48048	7.64
Cc1c([C@@H](O)CN2CCC3(CC2)CN(c2ccc(=O)n(C)n2)CCO3)ccc2c1COC2=O	UniProtKB P48048	7.05
Cc1c([C@@H](O)CN2CCC3(CC2)CCN(c2cnc(Br)cn2)CC3)ccc2c1COC2=O	UniProtKB P48048	7.52

P = Cc1c(CCN2CCC3(CC2)CCN(c2ccc(=O)n(C)n2)C3=O)ccc2c1COC2=O
Q = O[C@@H](CN1CCC2(CC1)CCN(c1cnc(Cl)cn1)CC2)c1ccc(-n2cnnn2)nc1
Input: Lowest pIC50? choose P or Q The response must carry the label of the picked entry.
Output: Q
(Q: 6.06, P: 7.29)
